Hello, the source for this data is paper PMC8308784, in case you need it.

System: Vero cells
Assay: Vero cell toxicity assay (alamarBlue)
Type: cell-based, green monkey
Settings: 4 days; minimum value of the 95% CI, except BNZ (mean (SD))
PROPERTY_MEASURED: Vero Cells TC50

>  <SAMPLE_SMILES>
CN1CCN(n2c(-c3ccccc3)nc3c(OCc4cn(Cc5cscn5)nn4)ncnc32)CC1

>  <TESTED_SYSTEM>
Vero cells

>  <VALUE_REPORTED>
>70 µM

$$$$

Per the record, c1ccc(CCn2c(-c3ccccc3)nc3c(OCc4ccccc4)ncnc32)cc1 has Vero Cells TC50 of >150 µM

Per the record, COc1cccc(-n2cc(COc3ncnc4c3ncn4N3CCN(C)CC3)nn2)c1 has Vero Cells TC50 of >60 µM

====

Tested on: P. falciparum 3D7
Assay: P. falciparum primary screening at three fixed concentrations
Type: cell-based
Conditions: Plasmodium falciparum, 3D7, compound at 100 µM, average of at least three experiments, read-out: Primary screening, parasite growth relative to the negative control
Let's look at some molecules and their measured activity at 100 µM.
Answer format: numeric, % implied, no suffix.

Examples with answers:
>  <SAMPLE_SMILES>
COC(=O)c1ccccc1-n1cc(COc2ncnc3c2nc(-c2ccccc2)n3N(C)C)nn1

>  <TESTED_SYSTEM>
P. falciparum 3D7

>  <VALUE_UNITS>
%

>  <activity at 100 µM>
43.2

$$$$
>  <SAMPLE_SMILES>
Cc1nc2c(OCc3ccccc3)ncnc2n1C(C)C

>  <TESTED_SYSTEM>
P. falciparum 3D7

>  <VALUE_UNITS>
%

>  <activity at 100 µM>
88.5

$$$$
>  <SAMPLE_SMILES>
CC(C)(C)n1c(-c2ccccc2)nc2c(OCc3ccccc3)ncnc21

>  <TESTED_SYSTEM>
P. falciparum 3D7

>  <VALUE_UNITS>
%

>  <activity at 100 µM>
13.2

$$$$
>  <SAMPLE_SMILES>
c1ccc(-c2nc3c(OCc4cn(Cc5cscn5)nn4)ncnc3n2N2CCCCC2)cc1

>  <TESTED_SYSTEM>
P. falciparum 3D7

>  <VALUE_UNITS>
%

>  <activity at 100 µM>
15.2

$$$$
>  <SAMPLE_SMILES>
c1ccc(COc2ncnc3c2ncn3Cc2ccccc2)cc1

>  <TESTED_SYSTEM>
P. falciparum 3D7

>  <VALUE_UNITS>
%

>  <activity at 100 µM>
31.8

$$$$
>  <SAMPLE_SMILES>
COc1ccccc1-n1cc(COc2ncnc3c2nc(-c2ccccc2)n3N(C)C)nn1

>  <TESTED_SYSTEM>
P. falciparum 3D7

>  <VALUE_UNITS>
%

>  <activity at 100 µM>
22.5

$$$$
>  <SAMPLE_SMILES>
CC(C)(C)Nc1ncnc2c1nc(-c1ccccc1)n2C(C)(C)C

>  <TESTED_SYSTEM>
P. falciparum 3D7

>  <VALUE_UNITS>
%

>  <activity at 100 µM>
69.5

$$$$
>  <SAMPLE_SMILES>
CC(C)Oc1ncnc2c1ncn2C(C)C

>  <TESTED_SYSTEM>
P. falciparum 3D7

>  <VALUE_UNITS>
%

>  <activity at 100 µM>
102

$$$$

Moving on to another molecule below.
Per the record, CCOc1ncnc2c1ncn2Cc1ccccc1 has activity at 100 µM of 53.8
